TEST_DETAILS: LD50 in mice by oral administration
EXPERIMENTAL_CONTEXT: mouse, in vivo; mice, oral administration; read-out: LD50
ENDPOINT_LABEL: LD50 (mg/kg)
# number only, unit mg/kg dropped from output

Indicate its recorded LD50; the molecule in question is CC(C)(SC#N)[N+](=O)[O-] [Example P-2216, 1-methyl-1-nitroethyl thiocyanate]
500
